# IC50 per record follows
Target: full length AKT E17K (Homo sapiens, UniProt P31749, E17K)
Construct: host or cells: HEK-293 (ATCC CRL-1573)
Sequence (P31749 whole entry E17K): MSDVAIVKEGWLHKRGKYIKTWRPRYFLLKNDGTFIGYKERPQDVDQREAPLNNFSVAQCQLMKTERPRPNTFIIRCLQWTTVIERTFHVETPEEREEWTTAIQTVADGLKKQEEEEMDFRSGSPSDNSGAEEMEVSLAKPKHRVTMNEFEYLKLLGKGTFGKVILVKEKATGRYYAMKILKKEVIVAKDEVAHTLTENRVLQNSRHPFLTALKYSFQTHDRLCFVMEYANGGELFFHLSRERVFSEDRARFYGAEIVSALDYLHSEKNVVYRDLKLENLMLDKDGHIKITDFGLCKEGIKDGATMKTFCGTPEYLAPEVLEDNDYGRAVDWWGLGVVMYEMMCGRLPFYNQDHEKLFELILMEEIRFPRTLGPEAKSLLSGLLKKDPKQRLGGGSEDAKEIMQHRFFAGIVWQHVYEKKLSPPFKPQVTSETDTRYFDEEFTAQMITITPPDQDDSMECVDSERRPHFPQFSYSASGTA
Experiment: NanoBRET Target Engagement (TE) Assay
Type: cell-based
Conditions: competitive tracer displacement in living cells, read-out: AKT1 E17K IC50
Measurement Type: IC50

N#Cc1cncc(C(=O)N2CCN(Cc3ccc(-n4c(-c5cccnc5N)nc5ccc(-c6ccccc6)nc54)cc3)CC2)c1 [Example 139] :: 600 to 10000 nM
N#Cc1ccncc1C(=O)N1CCN(Cc2ccc(-n3c(-c4cccnc4N)nc4ccc(-c5ccccc5)nc43)cc2)CC1 [Example 145] :: 600 to 10000 nM
N#Cc1nc2cc(F)cc(C(=O)NCc3ccc(-n4c(-c5cccnc5N)nc5cccnc54)cc3)c2s1 [Example 173] :: < 15 nM
N#Cc1cc(C(=O)NC2CCN(Cc3ccc(-n4c(-c5cccnc5N)nc5ccc(-c6ccccc6)nc54)cc3)CC2)ccn1 [Example 55] :: 15 to 60 nM
N#Cc1cc(N2C[C@H]3C[C@@H]2CN3Cc2ccc(-n3c(-c4cccnc4N)nc4ccc(-c5ccccc5)nc43)cc2)ncn1 [Example 218] :: 15 to 60 nM
N#Cc1ccncc1C(=O)NC1CCN(Cc2ccc(-n3c(-c4cccnc4N)nc4cccnc43)cc2)CC1 [Example 29] :: 600 to 10000 nM
N#Cc1ccc(C(=O)NC2CCN(Cc3ccc(-n4c(-c5cccnc5N)nc5cccnc54)cc3)CC2)nc1 [Example 25] :: 600 to 10000 nM
N#Cc1cc(NC2CCN(Cc3ccc(-n4c(-c5cccnc5N)nc5ccc(-c6ccccc6Cl)nc54)cc3)CC2)ncn1 [Example 307] :: 60 to 600 nM
N#Cc1ccnc(NC2CCN(Cc3ccc(-n4c(-c5cccnc5N)nc5ccc(-c6ccccc6Cl)nc54)cc3)CC2)n1 [Example 306] :: 15 to 60 nM
N#Cc1nccc(N2CCN(Cc3ccc(-n4c(-c5cccnc5N)nc5ccc(-c6cccc(Cl)c6)nc54)cc3)CC2)n1 [Example 296] :: < 15 nM
N#Cc1nccc(NC2CCN(Cc3ccc(-n4c(-c5cccnc5N)nc5ccc(-c6ccc(=O)[nH]c6)nc54)cc3)CC2)n1 [Example 266] :: 60 to 600 nM
N#Cc1ccc(NC2CCN(Cc3ccc(-n4c(-c5cccnc5N)nc5cccnc54)cc3)CC2)cn1 [Example 157] :: 600 to 10000 nM
N#Cc1nccc(NC2CCN(Cc3ccc(-n4c(-c5cccnc5N)nc5ccc(-c6ccccc6)nc54)cc3)CC2)n1 [Example 88] :: < 15 nM
N#Cc1cccc(OC2CCN(Cc3ccc(-n4c(-c5cccnc5N)nc5ccc(-c6ccccc6)nc54)cc3)CC2)n1 [Example 7] :: 60 to 600 nM

---

Molecular target: full length AKT E17K (Homo sapiens, UniProt P31749, E17K)
Construct: host or cells: HEK-293 (ATCC CRL-1573)
Test: NanoBRET Target Engagement (TE) Assay
Format: cell-based
Conditions: competitive tracer displacement in living cells, read-out: AKT1 E17K IC50
pIC50: −log10 of the molar value.
Measurement Type: pIC50

N#Cc1ncnc(N2CCC3(CCN(Cc4ccc(-n5c(-c6cccnc6N)nc6ccc(-c7ccccc7)nc65)cc4)C3)C2)n1 (stereo not shown) :: > 7.82
N#Cc1nc2c(C(=O)NC3CCN(Cc4ccc(-n5c(-c6cccnc6N)nc6ccc(-c7ccccc7)nc65)cc4)CC3)cc(F)cc2s1 :: 6.22 to 7.22
N#Cc1nccc(N2CCC3(CCN(Cc4ccc(-n5c(-c6cccnc6N)nc6ccc(-c7ccccc7)nc65)cc4)C3)C2)n1 (stereo not shown) :: > 7.82
N#Cc1cncc(NC2CCN(Cc3ccc(-n4c(-c5cccnc5N)nc5cccnc54)cc3)CC2)c1 :: 5.00 to 6.22
N#Cc1ccc(OC2CCN(Cc3ccc(-n4c(-c5cccnc5N)nc5ccc(-c6ccccc6)nc54)cc3)CC2)nc1 :: 6.22 to 7.22
N#Cc1ncnc(NC2CCCN(Cc3ccc(-n4c(-c5cccnc5N)nc5ccc(-c6ccccc6)nc54)cc3)CC2)n1 (stereo not shown) :: 7.22 to 7.82
N#Cc1cc(C(=O)NC2CCN(Cc3ccc(-n4c(-c5cccnc5N)nc5cccnc54)cc3)CC2)ccn1 :: 5.00 to 6.22
